Reference for the values: a melting point compilation (Tetko et al.)

Reported melting point by item:

# count of solved cases: 10
Cc1ccc(NC(=O)CN(C)C(=O)CCl)cc1 | 145 to 147 °C
CCOc1ccc2nc(-c3ccc(N)cc3)sc2c1 | 203 to 205 °C
Cc1ccc(C)c(NC(=O)CCl)c1 | 161 to 163 °C
CCOC(=O)Nc1ccc(Br)cc1 | 79 to 81 °C
CS(=O)(=O)Nc1ccc(Cl)cc1C(=O)O | 199 to 201 °C
O=C(O)C1CC(O)CN1C(=O)COc1ccccc1 (stereo not drawn) | 157 to 159 °C
OCCNCc1cccc(OCc2ccccc2Cl)c1 | 49 to 50 °C
Cc1ccc(C)c(-n2ccnc2SCC(=O)O)c1 | 128 to 130 °C
O=c1c2ccccc2nc(S)n1-c1ccc(Cl)cc1 | 336 to 338 °C
N#Cc1cccc(NC(=O)CSc2ccccc2C(=O)O)c1 | 118 to 120 °C

Measured melting point, O=C(O)c1cc(S(=O)(=O)N2CCOCC2)ccc1Br : 188 to 190 °C

Quick note, melting point for c1cnc2c(c1)CCN2 landed at 79 to 81 °C

Reported melting point for Sc1nnc(Nc2cccc(Cl)c2)s1 was 210 to 212 °C
